// values below are reported protein stability index
B1: KLHL14 (parent)
chain: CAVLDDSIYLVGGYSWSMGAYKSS

- Variants of: B1
- ASSAY_INFO: protein stability index of a GFP-peptide fusion (GPS, HEK-293T) (PSI 1-6); higher = more stable;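 further: lentivirally expressed fusions sorted by FACS into six bins by GFP to DsRed ratio, PSI derived from sequencing read proportions per bin multiplied by bin number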
- MEASUREMENT_SETUP: c terminus: a fixed tail appended

// worked examples, protein stability index included
[
  {
    "MUTATION": "A20Q",
    "protein stability index": 3.05
  },
  {
    "MUTATION": "A20T",
    "protein stability index": 3.02
  },
  {
    "MUTATION": "G19R",
    "protein stability index": 2.98
  },
  {
    "MUTATION": "G13I",
    "protein stability index": 2.92
  },
  {
    "MUTATION": "W16M",
    "protein stability index": 3.09
  },
  {
    "MUTATION": "G19C",
    "protein stability index": 3
  }
]

Now for another entry.
Record summary for `S23A` : reported protein stability index = 2.92
